Biological target: hKOR (OPRK1) (Homo sapiens, UniProt P41145)
Construct: 3HA (triple haemagglutinin tag); expressed in transfected cells
Sequence (P41145 whole entry): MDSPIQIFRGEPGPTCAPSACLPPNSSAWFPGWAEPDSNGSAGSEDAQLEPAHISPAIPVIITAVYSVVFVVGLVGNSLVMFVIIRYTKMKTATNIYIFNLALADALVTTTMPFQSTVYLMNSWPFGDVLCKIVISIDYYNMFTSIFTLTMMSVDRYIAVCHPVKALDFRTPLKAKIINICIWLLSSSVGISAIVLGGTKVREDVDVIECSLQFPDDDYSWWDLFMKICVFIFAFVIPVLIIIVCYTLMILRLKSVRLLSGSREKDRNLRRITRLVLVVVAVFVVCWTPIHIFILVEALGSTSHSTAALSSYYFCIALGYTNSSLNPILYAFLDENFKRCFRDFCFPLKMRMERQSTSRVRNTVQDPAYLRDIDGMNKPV
Assay: cell-based
Details: mean EC50 of inhibition of forskolin-stimulated cAMP accumulation via KOR
Lab note: compare EC50 with 0.1 µM, writing YES if less and NO if equal or more.

**Query** Is it true that EC50 reported for C#CC1(O)CC(c2ccccc2)CC2C1CCC1(C)C(C(=O)OC)CC(OC(C)=O)C(=O)C21 (stereo not shown) [40b] is less than 0.1 µM?
**Result** YES

**Query** Does the reported EC50 of COC(=O)[C@@H]1C[C@H](OC(C)=O)C(=O)[C@@H]2[C@H]3C[C@@H](c4ccccc4)CC(=O)N[C@@H]3CC[C@]21C [compound 35] stay below 0.1 µM?
**Result** YES

**Query** Please let me know if COC(=O)[C@@H]1C[C@H](OC(C)=O)C(=O)[C@@H]2[C@H]3C[C@@H](Sc4ccccc4)CC(=O)[C@@H]3CC[C@]21C [compound 33] shows EC50 below 0.1 µM.
**Result** YES

**Query** Please check: EC50 for COC(=O)[C@@H]1C[C@H](OC(C)=O)C(=O)[C@@H]2[C@H]3CC=CC(=O)[C@@H]3CC[C@]21C [17a] , strictly under 0.1 µM or not?
**Result** NO

**Query** Take the molecule COC(=O)[C@@H]1C[C@H](OC(C)=O)C(=O)[C@@H]2[C@H]3C[C@@H](c4cccc(Cl)c4)CC(=O)[C@@H]3CC[C@]21C [compound 31] and say whether its EC50 is less than 0.1 µM.
**Result** YES

**Query** EC50 under 0.1 µM? Item: COC(=O)[C@@H]1C[C@H](OC(C)=O)C(=O)[C@@H]2[C@H]3C[C@@H](c4ccnc(OC)c4)CC(=O)[C@@H]3CC[C@]21C [compound 23]
**Result** NO

**Query** Just wondering, is EC50 of COC(=O)C1CC(OC(C)=O)C(=O)C2C3CC(c4ccoc4)CC(O)C3CCC12C (stereo not shown) [41b] below 0.1 µM?
**Result** YES
